Data credit: ChEMBL document CHEMBL1781973

Entries annotated with measured inhibition at 10 µM
- assayedTarget: CYP2D6 (Homo sapiens, UniProt P10635)
- Sequence (P10635 whole entry): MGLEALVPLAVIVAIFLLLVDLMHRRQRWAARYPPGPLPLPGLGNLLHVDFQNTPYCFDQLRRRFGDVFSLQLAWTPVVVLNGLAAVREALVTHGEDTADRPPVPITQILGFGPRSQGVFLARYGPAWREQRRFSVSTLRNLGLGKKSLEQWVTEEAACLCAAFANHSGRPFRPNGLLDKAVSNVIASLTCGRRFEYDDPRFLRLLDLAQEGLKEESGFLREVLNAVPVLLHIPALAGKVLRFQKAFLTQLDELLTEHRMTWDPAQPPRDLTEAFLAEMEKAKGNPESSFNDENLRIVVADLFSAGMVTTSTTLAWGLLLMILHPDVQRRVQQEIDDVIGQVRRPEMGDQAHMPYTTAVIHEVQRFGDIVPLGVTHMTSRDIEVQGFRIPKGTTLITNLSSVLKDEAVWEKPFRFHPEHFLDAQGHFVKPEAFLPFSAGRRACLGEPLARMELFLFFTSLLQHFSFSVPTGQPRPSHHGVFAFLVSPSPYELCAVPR
- methodDescription: Inhibition of human CYP2D6 at 10 uM
- Format: ADME
endpointName: inhibition at 10 µM (%)

[[record]]
querysmiles = "O=S(=O)(c1ccc(F)cc1F)n1cc(Cl)c2cc(CN3CCNCC3)ccc21"
numericvalue = 17.7

[[record]]
querysmiles = "CCN1CCN(Cc2ccc3c(ccn3S(=O)(=O)c3ccc(C(C)C)cc3)c2)CC1"
numericvalue = 35.7

[[record]]
querysmiles = "CN1CCN(Cc2ccc3c(ccn3S(=O)(=O)c3ccccc3)c2)CC1"
numericvalue = 31.2

[[record]]
querysmiles = "CCN1CCN(Cc2ccc3c(ccn3S(=O)(=O)c3ccc(F)cc3)c2)CC1"
numericvalue = 46

[[record]]
querysmiles = "CN1CCN(Cc2ccc3c(c2)c(Cl)cn3S(=O)(=O)c2ccc(F)cc2)CC1"
numericvalue = 15.2

[[record]]
querysmiles = "CCN1CCN(Cc2ccc3c(ccn3S(=O)(=O)c3ccccc3Br)c2)CC1"
numericvalue = 76.2


---

- assayedTarget: CYP1A2 (Homo sapiens, UniProt P05177)
- Sequence (P05177 whole entry): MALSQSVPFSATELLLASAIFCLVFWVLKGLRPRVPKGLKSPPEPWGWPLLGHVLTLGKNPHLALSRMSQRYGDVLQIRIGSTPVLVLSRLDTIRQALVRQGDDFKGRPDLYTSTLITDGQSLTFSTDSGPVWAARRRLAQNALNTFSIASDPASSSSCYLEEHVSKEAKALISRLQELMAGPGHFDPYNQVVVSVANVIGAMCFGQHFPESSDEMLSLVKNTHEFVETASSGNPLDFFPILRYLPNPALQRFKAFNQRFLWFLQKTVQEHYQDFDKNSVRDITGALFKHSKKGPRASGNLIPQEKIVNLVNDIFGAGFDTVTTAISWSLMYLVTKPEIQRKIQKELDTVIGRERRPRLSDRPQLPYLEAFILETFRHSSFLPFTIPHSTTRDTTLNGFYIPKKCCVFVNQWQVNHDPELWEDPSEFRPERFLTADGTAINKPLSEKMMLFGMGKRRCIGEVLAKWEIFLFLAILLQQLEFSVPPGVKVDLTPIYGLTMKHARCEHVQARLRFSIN
- methodDescription: Inhibition of human CYP1A2 at 3 uM
- Assay type: ADME
Tick Satisfied if inhibition at 3 µM is 10% or greater. Tick Not satisfied if inhibition at 3 µM is less than 10%.

[[record]]
querysmiles = "CN1CCN(Cc2ccc3c(c2)c(Cl)cn3S(=O)(=O)c2ccc(F)cc2)CC1"
assayedtarget = "CYP1A2 (Homo sapiens, UniProt P05177)"
assignedcategory = "Not satisfied"

[[record]]
querysmiles = "CCN1CCN(Cc2ccc3c(ccn3S(=O)(=O)c3ccccc3Br)c2)CC1"
assayedtarget = "CYP1A2 (Homo sapiens, UniProt P05177)"
assignedcategory = "Not satisfied"

[[record]]
querysmiles = "CCN1CCN(Cc2ccc3c(ccn3S(=O)(=O)c3ccc(C(C)C)cc3)c2)CC1"
assayedtarget = "CYP1A2 (Homo sapiens, UniProt P05177)"
assignedcategory = "Satisfied"

[[record]]
querysmiles = "CN1CCN(Cc2ccc3c(ccn3S(=O)(=O)c3ccccc3)c2)CC1"
assayedtarget = "CYP1A2 (Homo sapiens, UniProt P05177)"
assignedcategory = "Satisfied"

[[record]]
querysmiles = "CCN1CCN(Cc2ccc3c(ccn3S(=O)(=O)c3ccc(F)cc3)c2)CC1"
assayedtarget = "CYP1A2 (Homo sapiens, UniProt P05177)"
assignedcategory = "Satisfied"

[[record]]
querysmiles = "O=S(=O)(c1ccc(F)cc1F)n1cc(Cl)c2cc(CN3CCNCC3)ccc21"
assayedtarget = "CYP1A2 (Homo sapiens, UniProt P05177)"
assignedcategory = "Satisfied"


---

- methodDescription: Apparent volume of distribution in fasted Wistar rat at 10 mg/kg, iv
- Assay type: ADME, organism-based
- Design: dose 10 mg/kg, route intravenous
- studyConditions: in vivo, read-out: Vz
endpointName: Vd (L/kg)

[[record]]
querysmiles = "CCN1CCN(Cc2ccc3c(ccn3S(=O)(=O)c3ccccc3Br)c2)CC1"
endpointname = "Vd"
numericvalue = 21.8


---

- methodDescription: Clearance in fasted Wistar rat at 10 mg/kg, po
- Assay type: ADME, organism-based
- Parameters: dose 10 mg/kg, route oral
- studyConditions: in vivo
endpointName: CL/F (mL/min/kg)

[[record]]
querysmiles = "CCN1CCN(Cc2ccc3c(ccn3S(=O)(=O)c3ccccc3Br)c2)CC1"
numericvalue = 2140


---

- assayedTarget: CYP1A2 (Homo sapiens)
- methodDescription: Inhibition of human CYP1A2 at 10 uM
- Format: ADME
endpointName: inhibition at 10 µM

[[record]]
querysmiles = "CN1CCN(Cc2ccc3c(ccn3S(=O)(=O)c3ccccc3)c2)CC1"
result = "17.3%"

[[record]]
querysmiles = "O=S(=O)(c1ccc(F)cc1F)n1cc(Cl)c2cc(CN3CCNCC3)ccc21"
result = "14.6%"

[[record]]
querysmiles = "CN1CCN(Cc2ccc3c(c2)c(Cl)cn3S(=O)(=O)c2ccc(F)cc2)CC1"
result = "26.9%"

[[record]]
querysmiles = "CCN1CCN(Cc2ccc3c(ccn3S(=O)(=O)c3ccccc3Br)c2)CC1"
result = "17.9%"

[[record]]
querysmiles = "CCN1CCN(Cc2ccc3c(ccn3S(=O)(=O)c3ccc(F)cc3)c2)CC1"
result = "8.34%"

[[record]]
querysmiles = "CCN1CCN(Cc2ccc3c(ccn3S(=O)(=O)c3ccc(C(C)C)cc3)c2)CC1"
result = "18.2%"


---

- assayedTarget: CYP2A6 (Homo sapiens)
- Sequence (P11509 whole entry): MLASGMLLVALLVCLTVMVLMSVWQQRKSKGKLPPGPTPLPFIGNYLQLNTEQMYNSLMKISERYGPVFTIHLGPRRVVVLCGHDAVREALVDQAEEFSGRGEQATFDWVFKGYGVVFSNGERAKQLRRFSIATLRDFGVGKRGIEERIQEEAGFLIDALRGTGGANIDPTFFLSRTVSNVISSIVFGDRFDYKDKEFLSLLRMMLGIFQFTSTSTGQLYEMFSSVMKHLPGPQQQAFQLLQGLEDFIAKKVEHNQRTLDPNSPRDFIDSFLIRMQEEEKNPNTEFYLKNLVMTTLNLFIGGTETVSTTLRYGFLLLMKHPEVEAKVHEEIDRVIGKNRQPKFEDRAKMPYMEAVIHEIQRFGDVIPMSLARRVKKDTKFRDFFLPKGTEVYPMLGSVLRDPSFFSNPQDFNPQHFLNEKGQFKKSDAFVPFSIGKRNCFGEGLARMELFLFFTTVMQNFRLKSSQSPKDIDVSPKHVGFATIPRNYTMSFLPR
- methodDescription: Inhibition of human CYP2A6 at 10 uM
- Format: ADME
endpointName: inhibition at 10 µM (%)

[[record]]
querysmiles = "CCN1CCN(Cc2ccc3c(ccn3S(=O)(=O)c3ccc(F)cc3)c2)CC1"
numericvalue = 10.2

[[record]]
querysmiles = "CN1CCN(Cc2ccc3c(ccn3S(=O)(=O)c3ccccc3)c2)CC1"
numericvalue = 4.81

[[record]]
querysmiles = "O=S(=O)(c1ccc(F)cc1F)n1cc(Cl)c2cc(CN3CCNCC3)ccc21"
numericvalue = 6.37

[[record]]
querysmiles = "CN1CCN(Cc2ccc3c(c2)c(Cl)cn3S(=O)(=O)c2ccc(F)cc2)CC1"
numericvalue = 19.8

[[record]]
querysmiles = "CCN1CCN(Cc2ccc3c(ccn3S(=O)(=O)c3ccccc3Br)c2)CC1"
numericvalue = 10.8

[[record]]
querysmiles = "CCN1CCN(Cc2ccc3c(ccn3S(=O)(=O)c3ccc(C(C)C)cc3)c2)CC1"
numericvalue = 21.9


---

- methodDescription: Half life in fasted Wistar rat at 10 mg/kg, po
- Assay type: ADME, organism-based
- Set-up: dose 10 mg/kg, route oral
- studyConditions: in vivo
endpointName: half-life

[[record]]
querysmiles = "CCN1CCN(Cc2ccc3c(ccn3S(=O)(=O)c3ccccc3Br)c2)CC1"
result = "6.04 h"


---

Measured pKi on 5-hydroxytryptamine receptor 6 (Homo sapiens, UniProt P50406) follows.
Sequence (P50406 whole entry): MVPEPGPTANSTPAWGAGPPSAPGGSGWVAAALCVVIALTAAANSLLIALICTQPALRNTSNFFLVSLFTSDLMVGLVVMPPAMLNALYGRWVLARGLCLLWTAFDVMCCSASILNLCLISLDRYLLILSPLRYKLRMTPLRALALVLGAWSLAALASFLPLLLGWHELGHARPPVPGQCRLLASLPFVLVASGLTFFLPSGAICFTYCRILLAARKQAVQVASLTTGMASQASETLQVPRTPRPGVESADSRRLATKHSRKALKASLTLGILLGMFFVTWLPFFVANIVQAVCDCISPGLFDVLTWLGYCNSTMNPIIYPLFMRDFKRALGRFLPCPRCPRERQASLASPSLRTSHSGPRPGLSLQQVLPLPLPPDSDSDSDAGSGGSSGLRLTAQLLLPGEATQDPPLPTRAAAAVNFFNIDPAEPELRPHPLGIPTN
pKi: −log10 of the molar value.
endpointName: pKi

[[record]]
querysmiles = "CCN1CCN(Cc2ccc3c(ccn3S(=O)(=O)c3ccc(C)cc3)c2)CC1"
ltgteq = "="
numericvalue = 7.96

[[record]]
querysmiles = "CCN1CCN(Cc2ccc3c(ccn3S(=O)(=O)c3cccc(C(F)(F)F)c3)c2)CC1"
ltgteq = "="
numericvalue = 8.24

[[record]]
querysmiles = "CCN1CCN(Cc2ccc3c(ccn3Cc3ccccc3)c2)CC1"
ltgteq = "<"
numericvalue = 6.00

[[record]]
querysmiles = "CN1CCN(Cc2ccc3c(c2)c(Cl)cn3S(=O)(=O)c2ccc(Cl)cc2)CC1"
ltgteq = "="
numericvalue = 8.03

[[record]]
querysmiles = "CN1CCN(Cc2ccc3c(ccn3S(=O)(=O)c3cccc(C(F)(F)F)c3)c2)CC1"
ltgteq = "="
numericvalue = 8.50


---

- assayedTarget: Muscarinic acetylcholine receptor M1 (Homo sapiens, UniProt P11229)
- Sequence (P11229 whole entry): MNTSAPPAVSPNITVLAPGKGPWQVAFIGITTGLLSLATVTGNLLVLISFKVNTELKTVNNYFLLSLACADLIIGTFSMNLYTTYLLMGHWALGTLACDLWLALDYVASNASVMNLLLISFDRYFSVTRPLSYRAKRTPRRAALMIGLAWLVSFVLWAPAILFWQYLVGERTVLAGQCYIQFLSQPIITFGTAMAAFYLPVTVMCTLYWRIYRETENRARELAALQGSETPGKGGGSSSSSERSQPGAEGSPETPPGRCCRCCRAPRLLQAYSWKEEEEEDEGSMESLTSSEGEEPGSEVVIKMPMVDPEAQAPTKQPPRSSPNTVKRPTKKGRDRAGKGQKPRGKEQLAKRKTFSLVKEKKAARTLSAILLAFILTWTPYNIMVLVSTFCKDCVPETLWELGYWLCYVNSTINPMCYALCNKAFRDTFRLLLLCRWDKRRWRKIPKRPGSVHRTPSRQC
- methodDescription: Inhibition of human muscarinic M1 receptor expressed in CHO cells after 5 hrs by luciferase reporter assay
pIC50: −log10 of the molar value.
# pIC50 values compiled below
endpointName: pIC50

[[record]]
querysmiles = "CN1CCN(Cc2ccc3c(c2)c(Cl)cn3S(=O)(=O)c2ccc(F)cc2)CC1"
endpointname = "pIC50"
ltgteq = "<"
numericvalue = 5.00

[[record]]
querysmiles = "CCN1CCN(Cc2ccc3c(ccn3S(=O)(=O)c3ccccc3Br)c2)CC1"
endpointname = "pIC50"
ltgteq = "="
numericvalue = 5.85


---

- methodDescription: Ratio of drug level at steady state in brain to plasma in fasted Wistar rat
- Assay type: ADME
- studyConditions: read-out: BPR
endpointName: Kp

[[record]]
querysmiles = "CCN1CCN(Cc2ccc3c(ccn3S(=O)(=O)c3ccccc3Br)c2)CC1"
endpointname = "Kp"
numericvalue = 19.3


---

- assayedTarget: CYP2C19 (Homo sapiens)
- Sequence (P33261 whole entry): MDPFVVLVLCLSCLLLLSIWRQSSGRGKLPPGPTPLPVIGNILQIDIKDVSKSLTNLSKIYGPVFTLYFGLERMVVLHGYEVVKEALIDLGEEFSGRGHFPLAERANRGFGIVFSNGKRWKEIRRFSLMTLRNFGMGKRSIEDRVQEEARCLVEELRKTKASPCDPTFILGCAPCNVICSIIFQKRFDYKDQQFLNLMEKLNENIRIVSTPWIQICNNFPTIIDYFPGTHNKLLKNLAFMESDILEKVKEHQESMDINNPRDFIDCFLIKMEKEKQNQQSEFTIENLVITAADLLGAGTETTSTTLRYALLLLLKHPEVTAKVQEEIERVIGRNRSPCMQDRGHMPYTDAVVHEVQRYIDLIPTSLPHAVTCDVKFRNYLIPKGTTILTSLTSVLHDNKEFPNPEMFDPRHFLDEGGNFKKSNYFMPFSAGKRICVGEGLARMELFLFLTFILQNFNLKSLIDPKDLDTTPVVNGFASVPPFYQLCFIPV
- methodDescription: Inhibition of human CYP2C19 at 10 uM
- Assay type: ADME
# Lookup of reported inhibition at 10 µM keyed by entry
endpointName: inhibition at 10 µM (%)

[[record]]
querysmiles = "O=S(=O)(c1ccc(F)cc1F)n1cc(Cl)c2cc(CN3CCNCC3)ccc21"
assayedtarget = "CYP2C19 (Homo sapiens)"
numericvalue = 72.9

[[record]]
querysmiles = "CN1CCN(Cc2ccc3c(c2)c(Cl)cn3S(=O)(=O)c2ccc(F)cc2)CC1"
assayedtarget = "CYP2C19 (Homo sapiens)"
numericvalue = 21.5

[[record]]
querysmiles = "CCN1CCN(Cc2ccc3c(ccn3S(=O)(=O)c3ccc(C(C)C)cc3)c2)CC1"
assayedtarget = "CYP2C19 (Homo sapiens)"
numericvalue = 51.1

[[record]]
querysmiles = "CCN1CCN(Cc2ccc3c(ccn3S(=O)(=O)c3ccccc3Br)c2)CC1"
assayedtarget = "CYP2C19 (Homo sapiens)"
numericvalue = 43.6

[[record]]
querysmiles = "CCN1CCN(Cc2ccc3c(ccn3S(=O)(=O)c3ccc(F)cc3)c2)CC1"
assayedtarget = "CYP2C19 (Homo sapiens)"
numericvalue = 4.7

[[record]]
querysmiles = "CN1CCN(Cc2ccc3c(ccn3S(=O)(=O)c3ccccc3)c2)CC1"
assayedtarget = "CYP2C19 (Homo sapiens)"
numericvalue = 31.2

